The reported measurements were obtained from paper PMC8401736.

# assay_system: HpG6PD enzyme (Helicobacter pylori, UniProt P56110)
# Sequence (P56110 whole entry): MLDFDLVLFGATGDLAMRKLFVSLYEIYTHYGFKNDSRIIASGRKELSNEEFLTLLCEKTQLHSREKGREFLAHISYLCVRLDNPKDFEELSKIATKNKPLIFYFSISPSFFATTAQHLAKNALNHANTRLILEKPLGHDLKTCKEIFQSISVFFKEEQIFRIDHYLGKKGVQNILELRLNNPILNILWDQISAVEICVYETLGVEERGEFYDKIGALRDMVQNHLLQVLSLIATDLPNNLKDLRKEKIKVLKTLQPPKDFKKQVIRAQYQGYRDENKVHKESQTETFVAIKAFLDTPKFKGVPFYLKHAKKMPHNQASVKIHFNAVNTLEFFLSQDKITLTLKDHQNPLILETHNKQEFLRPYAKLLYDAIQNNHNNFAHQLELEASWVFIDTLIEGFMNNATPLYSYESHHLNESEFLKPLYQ
# experiment_description: Inactivation assays of the HpG6PD enzyme with increasing concentrations of compounds
# Type: biochemical
# reported_conditions: from plots of residual activity after incubation for 2 h at 37 °C; 200 μg/mL HpG6PD
The following compounds are shown together with reported pIC50 values.
The meaning of pIC50 here: minus log10 of the concentration in molar units.

O=C(O)CCc1ccc(NC(=O)CSc2nc3ccccc3o2)cc1    3.47
COc1ccc(/C=C2\SC(=O)NC2=O)cc1Oc1nc2ccccc2[nH]1    3.30
COc1ccc(/C=C2\SC(=O)NC2=O)cc1OCc1cccc(-c2ccccc2)c1    3.42
COc1cc(/C=C2\SC(=O)NC2=O)ccc1OCCN1CCCCC1    3.69
COc1cc(CCC(=O)O)ccc1OCc1ccc(-c2ccccc2C#N)cc1    3.52
O=C(O)CCc1ccc(NC(=O)CSc2nc3ccccc3[nH]2)cc1    3.33

Now look at this one.
Problem: # query: pIC50 | item COc1ccc(/C=C2\SC(=O)NC2=O)cc1OCc1cccc2ccccc12 | system: HpG6PD enzyme (Helicobacter pylori, UniProt P56110)
Solution: 3.51
